# reported Kd; entries follow
B1: scFv; the commonest letter at each place (parent)
chain 1: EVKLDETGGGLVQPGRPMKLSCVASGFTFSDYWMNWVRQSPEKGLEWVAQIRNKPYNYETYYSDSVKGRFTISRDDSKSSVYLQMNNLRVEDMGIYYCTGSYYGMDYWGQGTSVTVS
chain 2: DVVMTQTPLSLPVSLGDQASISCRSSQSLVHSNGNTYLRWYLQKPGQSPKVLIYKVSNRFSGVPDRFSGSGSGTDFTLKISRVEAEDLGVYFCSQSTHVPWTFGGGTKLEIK

Variants of: B1
experimental.protocol: Kd (Tite-Seq)
recorded.conditions: with fluorescein; format: scFv 4-4-20, heavy + light

{"mutation": "chain 1 F29Y Y32H", "Kd": "0.205 µM"}

Request: Look at this variant and give its reported Kd. chain 1 G104W G109E
Result: ≥ 10 µM

Request: Now this one: chain 1 T28M S30W
Result: 0.00708 µM

Request: Now this one: chain 1 S101H G109V
Result: ≥ 10 µM

Request: Now this one: chain 1 Y103D M105N
Result: ≥ 10 µM
